assay: Spectrometric; assay type: physicochemical; settings: aqueous buffer solutions at various pH, pH 3.5
observable: pKa
Provide a numeric answer; units are not to be included.

Per the records, this compound ( `CC[C@@]1(O)C(=O)OCc2c1cc1n(c2=O)Cc2cc3c(CN(C)C)c(O)ccc3nc2-1` ) has pKa equal to 6.56
